- SYSTEM_TESTED: purified H-2 D^b molecules (Mus musculus, UniProt P01899)
- Construct: made in house
- Sequence (P61769 21-119): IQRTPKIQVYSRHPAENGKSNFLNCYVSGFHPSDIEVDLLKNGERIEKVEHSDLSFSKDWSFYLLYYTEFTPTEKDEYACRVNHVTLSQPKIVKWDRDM
- Sequence (P01899 25-362): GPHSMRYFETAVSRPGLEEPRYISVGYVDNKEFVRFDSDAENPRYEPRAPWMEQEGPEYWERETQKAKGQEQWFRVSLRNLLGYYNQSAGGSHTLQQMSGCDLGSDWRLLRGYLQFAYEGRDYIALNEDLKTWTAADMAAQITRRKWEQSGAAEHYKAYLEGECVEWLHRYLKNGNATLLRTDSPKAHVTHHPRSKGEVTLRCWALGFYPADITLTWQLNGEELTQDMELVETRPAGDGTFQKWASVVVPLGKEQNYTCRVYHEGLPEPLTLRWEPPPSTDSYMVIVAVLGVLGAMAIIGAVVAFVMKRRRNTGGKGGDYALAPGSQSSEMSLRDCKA
- TEST_DETAILS: MHC peptide-binding assay, purified H-2 D^b
Ends that are not written are not given here.
PROPERTY_LABEL: IC50

MTMRCIGI [Epitope E-2-6]; > 2 µM
VSWTMKIL [Epitope E451-458]; > 2 µM
RALIFILL [Epitope M60-67]; > 2 µM

====

- SYSTEM_TESTED: purified H-2 D^b molecules (Mus musculus, UniProt P01899)
- Construct: made in house
- TEST_DETAILS: MHC peptide-binding assay, purified H-2 D^b
- CONDITION_NOTES: purified MHC, radiolabeled peptide competition; read-out: Binding affinity (IC50 nM) H2-D^b
Ends that are not written are not given here.
PROPERTY_LABEL: IC50 (nM)

LAVTIMAIL [NS2A145-153]; 644
FSLGVLGM [NS2A8-15]; 1800
TAIANQATV [NS4B66-74]; 1.3
VAVSFVTLI [NS2A36-44]; 997
VAFLRFLTI [Epitope C51-59]; 1380
RMLINRFTM [NS5237-45]; 21
YSQVNPITL [NS4B99-107]; 1.3
GMLQGRGPL [Epitope C36-44]; 820

====

- SYSTEM_TESTED: purified H-2 K^b molecules (Mus musculus, UniProt P01901)
- Construct: made in house
- Sequence (P01901 22-369, one chain of several): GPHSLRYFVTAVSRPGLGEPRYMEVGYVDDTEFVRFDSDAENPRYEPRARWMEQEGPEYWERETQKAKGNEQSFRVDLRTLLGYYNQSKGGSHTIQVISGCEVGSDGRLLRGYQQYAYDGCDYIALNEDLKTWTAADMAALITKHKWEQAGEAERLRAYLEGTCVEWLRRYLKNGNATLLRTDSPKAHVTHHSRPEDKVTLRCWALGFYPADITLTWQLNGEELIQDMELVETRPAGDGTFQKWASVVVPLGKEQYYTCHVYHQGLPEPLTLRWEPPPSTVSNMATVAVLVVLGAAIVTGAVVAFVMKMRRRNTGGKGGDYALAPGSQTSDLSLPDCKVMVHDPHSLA
- TEST_DETAILS: MHC peptide-binding assay, purified H-2 K^b
- CONDITION_NOTES: purified MHC, radiolabeled peptide competition; read-out: Binding affinity (IC50 nM) H2-K^b
Ends that are not written are not given here.
Measured IC50 values are reported for all entries that follow.
PROPERTY_LABEL: IC50 (nM)

RALIFILL [Epitope M60-67]; 22
MTMRCIGI [Epitope E-2-6]; 1080
GMLQGRGPL [Epitope C36-44]; 1340
YSQVNPITL [NS4B99-107]; 1890
VAFLRFLTI [Epitope C51-59]; 20
VAVSFVTLI [NS2A36-44]; 12

====

- SYSTEM_TESTED: purified H-2 K^b molecules (Mus musculus, UniProt P01901)
- Construct: made in house
- TEST_DETAILS: MHC peptide-binding assay, purified H-2 K^b
pIC50: −log10 of the molar value. Ends that are not written are not given here.
PROPERTY_LABEL: pIC50

TAIANQATV [NS4B66-74]; < 5.70
RMLINRFTM [NS5237-45]; < 5.70
LAVTIMAIL [NS2A145-153]; < 5.70
FSLGVLGM [NS2A8-15]; < 5.70
